Data origin: paper PMC10779950

Target: SHP2^WT (1–593) (Homo sapiens)
Construct: made in house; host or cells: E. coli BL21 Star (DE3), pET30 vector
Sequence (Q06124 1-593): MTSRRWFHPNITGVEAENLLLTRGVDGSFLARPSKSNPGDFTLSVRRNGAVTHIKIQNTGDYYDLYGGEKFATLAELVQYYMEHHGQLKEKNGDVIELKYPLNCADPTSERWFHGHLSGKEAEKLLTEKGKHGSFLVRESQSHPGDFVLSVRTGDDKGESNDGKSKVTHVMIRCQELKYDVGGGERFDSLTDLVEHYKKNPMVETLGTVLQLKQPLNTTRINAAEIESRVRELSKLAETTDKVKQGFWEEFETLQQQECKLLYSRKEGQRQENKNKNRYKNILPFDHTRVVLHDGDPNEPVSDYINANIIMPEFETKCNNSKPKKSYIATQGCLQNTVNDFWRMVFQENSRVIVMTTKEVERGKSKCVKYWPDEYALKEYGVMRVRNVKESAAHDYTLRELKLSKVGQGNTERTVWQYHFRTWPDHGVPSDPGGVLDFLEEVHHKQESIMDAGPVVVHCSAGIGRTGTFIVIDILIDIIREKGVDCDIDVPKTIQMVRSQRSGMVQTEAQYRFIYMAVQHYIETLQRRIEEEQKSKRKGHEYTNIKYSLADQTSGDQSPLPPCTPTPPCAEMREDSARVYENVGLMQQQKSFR
Assay: SHP-2 prompt fluorescence phosphatase assay (DiFMUP), SHP2^WT
Format: biochemical
Set-up: unit not given here
Conditions: experimental binding free energy converted from IC50
Result type: ΔG experiment

CC1(N)CCN(c2cnc(-c3ccnc(Cl)c3Cl)c(N)c2)CC1
-6.78
CC1(N)CCN(c2cnc(Sc3cccc(Cl)c3Cl)c(N)c2)CC1
-6.748
Nc1cc(NC2CCNC2)cnc1-c1cccc(Cl)c1Cl (centres unmarked)
-7.208
CC1(N)CCN(c2cnc(-c3cccc(F)c3Cl)c(N)c2)CC1
-6.573
Nc1cc(NC2CCNCC2)cnc1-c1cccc(Cl)c1Cl
-6.312
